The measurements presented in this section are drawn from ChEMBL document CHEMBL4316622.

This listing pairs molecules with measured log10 of IC50.
- System: Rec1
- TEST_DESCRIPTION: Antiproliferative activity against human Rec1 cells assessed as inhibition of cell proliferation incubated for 72 hrs by Cell-titer-Glo luminescent cell viability assay
- Assay type: functional, cell-based
- EXPERIMENTAL_CONTEXT: Rec1, 72 h
Quick note: numbers are log10 of IC50, with µM as the unit.

Some solved cases for reference:
MOLECULE	log10 of IC50
C/C=C/C(=O)N1CCCC(n2nc(-c3ccc(Oc4ccccc4)cc3)cc2C(=O)O)C1 (racemic)	1.49
C/C=C/C(=O)N1CCCC(n2nc(-c3ccc(Oc4ccccc4)cc3)cc2C(=O)OCC)C1 (racemic)	0.71
O=C(CCl)Nc1ccc(Cn2nc(-c3ccc(Oc4ccccc4)cc3)cc2CO)cc1	-0.40
C/C=C/C(=O)Nc1ccc(Cn2nc(-c3ccc(Oc4ccccc4)cc3)cc2C(=O)OCC)cc1	1.12

# evaluate next
Entry "C/C=C/C(=O)Nc1cccc(Cn2nc(-c3ccc(Oc4ccccc4)cc3)cc2CO)c1" — recorded log10 of IC50 = 0.53

====

- TEST_DESCRIPTION: Half life in human liver microsomes further incubated of 5 to 60 mins in presence of NADPH regenerating system by LC/MS analysis
- EXPERIMENTAL_CONTEXT: liver microsomes
TEST_READOUT: half-life
Respond with the figure and its unit, in that order.

Entry "O=C(CCl)Nc1cccc(Cn2nc(-c3ccc(Oc4ccccc4)cc3)cc2CO)c1" — recorded half-life = 10.6 min

====

- Test system: Maver1
- TEST_DESCRIPTION: Antiproliferative activity against human Maver1 cells assessed as inhibition of cell proliferation incubated for 72 hrs by Cell-titer-Glo luminescent cell viability assay
- Format: functional, cell-based
- EXPERIMENTAL_CONTEXT: Maver1, 72 h
TEST_READOUT: IC50 (µM)
Give the value in µM but do not write µM after it.

Some solved cases for reference:
COMPOUND	IC50, µM
C=CC(=O)Nc1cccc(Cn2nc(-c3ccc(Oc4ccccc4)cc3)cc2C(=O)O)c1	37.4
CCOC(=O)c1cc(-c2ccc(Oc3ccccc3)cc2)nn1Cc1cccc(NC(=O)CCl)c1	0.5

Entry "O=C(CCl)Nc1ccc(Cn2nc(-c3ccc(Oc4ccccc4)cc3)cc2CO)cc1" — recorded IC50 = 0.4

Entry "C=CC(=O)Nc1cccc(Cn2nc(-c3ccc(Oc4ccccc4)cc3)cc2CO)c1" — recorded IC50 = 6.7

Entry CCOC(=O)c1cc(-c2ccc(Oc3ccccc3)cc2)nn1C1CCCN(C(=O)CCl)C1 (racemic) — recorded IC50 = 1.2

====

- TEST_DESCRIPTION: in vitro
- EXPERIMENTAL_CONTEXT: human, liver microsomes
- Description: Intrinsic clearance in human liver microsomes further incubated of 5 to 60 mins in presence of NADPH regenerating system by LC/MS analysis
TEST_READOUT: microsomal CLint (µL/min/mg)
Give the value in µL/min/mg but do not write µL/min/mg after it.

Entry "O=C(CCl)Nc1cccc(Cn2nc(-c3ccc(Oc4ccccc4)cc3)cc2CO)c1" — recorded microsomal CLint = 131

====

- Tested on: Maver1
- TEST_DESCRIPTION: Antiproliferative activity against human Maver1 cells assessed as inhibition of cell proliferation incubated for 72 hrs by Cell-titer-Glo luminescent cell viability assay
- Format: functional, cell-based
- EXPERIMENTAL_CONTEXT: Maver1, 72 h
TEST_READOUT: IC50 (µM)
Give the value in µM but do not write µM after it.

Some solved cases for reference:
COMPOUND	TESTED_TARGET	IC50 [µM]
O=C(CCl)Nc1cccc(Cn2nc(-c3ccc(Oc4ccccc4)cc3)cc2CO)c1	Maver1	0.4
C/C=C/C(=O)Nc1cccc(Cn2nc(-c3ccc(Oc4ccccc4)cc3)cc2C(=O)OCC)c1	Maver1	14.2
C/C=C/C(=O)Nc1ccc(Cn2nc(-c3ccc(Oc4ccccc4)cc3)cc2CO)cc1	Maver1	48.4
O=C(CCl)N1CCCC(n2nc(-c3ccc(Oc4ccccc4)cc3)cc2CO)C1 (racemic)	Maver1	1.1
C=CC(=O)Nc1ccc(Cn2nc(-c3ccc(Oc4ccccc4)cc3)cc2CO)cc1	Maver1	7
O=C(CCl)Nc1cccc(Cn2nc(-c3ccc(Oc4ccccc4)cc3)cc2C(=O)O)c1	Maver1	4.7
C=CC(=O)Nc1cccc(Cn2nc(-c3ccc(Oc4ccccc4)cc3)cc2C(=O)OCC)c1	Maver1	8.6
C/C=C/C(=O)Nc1cccc(Cn2nc(-c3ccc(Oc4ccccc4)cc3)cc2CO)c1	Maver1	8.1
C/C=C/C(=O)Nc1cccc(Cn2nc(-c3ccc(Oc4ccccc4)cc3)cc2C(=O)O)c1	Maver1	31.6
C=CC(=O)N1CCC[C@@H](n2nc(-c3ccc(Oc4ccccc4)cc3)c3c(N)ncnc32)C1	Maver1	10.4

Entry "CCOC(=O)c1cc(-c2ccc(Oc3ccccc3)cc2)nn1Cc1ccc(NC(=O)CCl)cc1" — recorded IC50 = 0.4

Entry "O=C(CCl)Nc1ccc(Cn2nc(-c3ccc(Oc4ccccc4)cc3)cc2C(=O)O)cc1" — recorded IC50 = 1.2

Entry C=CC(=O)N1CCCC(n2nc(-c3ccc(Oc4ccccc4)cc3)cc2CO)C1 (racemic) — recorded IC50 = 30.5

Entry "C=CC(=O)Nc1ccc(Cn2nc(-c3ccc(Oc4ccccc4)cc3)cc2C(=O)OCC)cc1" — recorded IC50 = 13.3

Entry O=C(O)c1cc(-c2ccc(Oc3ccccc3)cc2)nn1C1CCCN(C(=O)CCl)C1 (racemic) — recorded IC50 = 0.4

Entry C/C=C/C(=O)N1CCCC(n2nc(-c3ccc(Oc4ccccc4)cc3)cc2C(=O)OCC)C1 (racemic) — recorded IC50 = 19.6
